All values here come from patent US20120164142A1.

- Tested System: human natriuretic peptide receptor B (NPR-B) (human) (UniProt P20594)
- Sequence (P20594 23-1047): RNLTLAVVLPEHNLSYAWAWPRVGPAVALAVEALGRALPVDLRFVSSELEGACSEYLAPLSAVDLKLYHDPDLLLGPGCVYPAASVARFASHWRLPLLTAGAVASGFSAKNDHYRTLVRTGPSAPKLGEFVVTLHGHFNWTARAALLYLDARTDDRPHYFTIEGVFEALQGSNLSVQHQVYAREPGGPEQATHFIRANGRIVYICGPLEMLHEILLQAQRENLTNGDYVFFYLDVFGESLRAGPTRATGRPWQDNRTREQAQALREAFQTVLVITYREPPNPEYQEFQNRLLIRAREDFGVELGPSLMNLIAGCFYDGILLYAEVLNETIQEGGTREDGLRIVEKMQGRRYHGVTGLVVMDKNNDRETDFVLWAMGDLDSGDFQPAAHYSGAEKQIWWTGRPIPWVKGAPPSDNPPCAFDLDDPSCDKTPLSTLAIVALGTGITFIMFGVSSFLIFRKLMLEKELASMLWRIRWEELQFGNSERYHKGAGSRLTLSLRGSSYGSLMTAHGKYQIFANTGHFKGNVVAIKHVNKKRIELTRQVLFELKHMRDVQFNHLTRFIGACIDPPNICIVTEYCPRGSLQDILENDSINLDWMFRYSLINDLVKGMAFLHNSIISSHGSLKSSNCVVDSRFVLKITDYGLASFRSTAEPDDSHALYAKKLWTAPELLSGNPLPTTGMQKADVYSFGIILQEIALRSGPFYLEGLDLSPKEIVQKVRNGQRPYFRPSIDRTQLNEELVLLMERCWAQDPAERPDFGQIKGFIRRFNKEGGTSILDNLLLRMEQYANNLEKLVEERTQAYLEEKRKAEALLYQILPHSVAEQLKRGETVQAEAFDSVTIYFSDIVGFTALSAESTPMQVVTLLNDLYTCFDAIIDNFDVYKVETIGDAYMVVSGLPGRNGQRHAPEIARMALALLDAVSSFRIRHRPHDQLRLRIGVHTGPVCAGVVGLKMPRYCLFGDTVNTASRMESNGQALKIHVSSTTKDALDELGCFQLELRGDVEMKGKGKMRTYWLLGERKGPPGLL
- Run Description: cell-based or functional assay
Experimental Endpoint: log10(EC50 (nM), NPR-B whole cell cGMP assay) (log10 of the value in nM)
# log10 transformed; quantity=EC50 (nM), NPR-B whole cell cGMP assay; unit=nM

Worked cases, answers included:
[
  {
    "Binder": "EEEEEESGGGGSGGGKGANQQGLSKGCFGLKLDRIGSMSGLGC [C9(E6) [BC9]]",
    "Recorded Number": 3.07
  },
  {
    "Binder": "EEEEEESGGGGSGGGQGANKQGLSKGCFGLKLDRIGSMSGLGC [C11(E6) [BC11]]",
    "Recorded Number": 2.95
  },
  {
    "Binder": "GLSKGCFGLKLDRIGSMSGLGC [human CNP22]",
    "Recorded Number": 1.17
  },
  {
    "Binder": "EEEEEESGGGGSGGGKGANKQGLSKGCFGLKLDRIGSMSGLGC [C6(E6) [BC6]]",
    "Recorded Number": 2.83
  }
]

Moving on to another binder below.
Request: Supply recorded log10(EC50 (nM), NPR-B whole cell cGMP assay) for EEEEEESGGGGSGGGQGANKKGLSKGCFGLKLDRIGSMSGLGC [C8(E6) [BC8]] here.
Response: 2.86
